The measured values listed here are drawn from ChEMBL document CHEMBL3632620.

system: Staphylococcus epidermidis; assay: Antibacterial activity against Staphylococcus epidermidis ATCC 12228 assessed as growth inhibition at 25 to 100 ug/ml at 12 hrs by agar well diffusion method; assay type: functional, organism-based
Active and inactive are the calls of the source. The calls are words filed in the database; no cut-off is given here.
Readout Label: Activity

Examples with their reported Activity follow.
CCOC(=O)C1(C)C(C)NC(=S)N(C)C1c1ccc(Cl)cc1 (stereo not given) : inactive
CCOC(=O)C1(C)C(C)NC(=S)N(C)C1c1ccc(OC)cc1 (stereo not given) : inactive
CCOC(=O)C1(C)C(C)NC(=O)N(C)C1c1ccccc1[N+](=O)[O-] (stereo not given) : inactive
CCOC(=O)C1(C)C(C)NC(=O)N(C)C1c1ccc(Cl)cc1 (stereo not given) : inactive
CCOC(=O)C1(C)C(C)NC(=S)N(C)C1c1ccccc1 (stereo not given) : inactive
CCOC(=O)C1(C)C(C)NC(=O)N(C)C1c1ccc(OC)cc1 (stereo not given) : inactive
CCOC(=O)C1(C)C(C)NC(=O)N(C)C1c1ccccc1 (stereo not given) : inactive
CCOC(=O)C1(C)C(C)NC(=O)N(C)C1c1ccc(O)cc1 (stereo not given) : inactive
CCOC(=O)C1(C)C(C)NC(=S)N(C)C1c1ccc(O)cc1 (stereo not given) : inactive

# next molecule below
Asked: Suppose we examine the molecule CCOC(=O)C1(C)C(C)NC(=O)N(C)C1c1ccc(N(C)C)cc1 (stereo not given) ; what Activity value has been reported?
Given back: inactive
